System: gedunin signature
assay-overview: Connectivity Map query with the gedunin signature
Type: cell-based, human
run-parameters: rank by gedunin score among 164 Connectivity Map compounds
Excerpt: Indeed, a major challenge in cell-based chemical biology and chemical genomics is the identification of compounds' targets (Gardner et al., 2003). We hypothesized that gene expression signatures could be used to identify compound action based on the similarity of such compound-induced signatures to signatures of existing drugs of known mechanism. […]
Measured gedunin rank by item
Write the value as a bare number.

[[record]]
molecule = "CO[C@H]1/C=C\\C=C(/C)C(=O)NC2=CC(=O)C(NCCN(C)C)=C(C[C@@H](C)C[C@H](OC)[C@H](O)[C@@H](C)/C=C(\\C)[C@@H]1OC(N)=O)C2=O [17-DMAG, reference compound]"
system = "gedunin signature"
meas_value = 5

[[record]]
molecule = "C=CCNC1=C2C[C@@H](C)C[C@H](OC)[C@H](O)[C@@H](C)/C=C(\\C)[C@H](OC(N)=O)[C@@H](OC)/C=C\\C=C(/C)C(=O)NC(=CC1=O)C2=O [17-AAG, 17-allylamino-geldanamycin, reference compound]"
system = "gedunin signature"
meas_value = 6

[[record]]
molecule = "COc1cc(/C=C(\\C#N)C(N)=O)cc(CSc2nc3ccccc3s2)c1O"
system = "gedunin signature"
meas_value = 141

[[record]]
molecule = "C/C(=C\\c1ccc(C(=O)O)cc1)c1ccc2c(c1)C(C)(C)CCC2(C)C"
system = "gedunin signature"
meas_value = 74


**Q:** Quick one: gedunin rank of Cc1ccc2c(c1)C(=O)C1(O)CCN(c3ccccc3)C1=N2 (stereo not shown) ?
**A:** 107

**Q:** Another molecule to check: CC(=O)OCOC(c1ccc2ccccc2c1)P(=O)(OCOC(C)=O)OCOC(C)=O (stereo not shown)
**A:** 36

###

Tested on: celastrol signature
assay-overview: Connectivity Map query with the celastrol signature
Type: cell-based, human
Parameters: key: connectivity score, based on Kolmogorov-Smirnov statistic
run-parameters: enrichment of the celastrol signature (1.25 μM celastrol at 6 h, LNCaP) in the compound's Connectivity Map profiles; 6 hr treatment
True if celastrol score (connectivity score) is below 0.5. False if not; exact matches included in False.

Take a look at these entries with their results.
[[record]]
molecule = "CC(=O)OCOC(c1ccc2ccccc2c1)P(=O)(OCOC(C)=O)OCOC(C)=O (stereo not shown)"
cat = "True"

[[record]]
molecule = "CN1CCN(CCCN2c3ccccc3Sc3ccc(Cl)cc32)CC1"
cat = "False"

[[record]]
molecule = "CC[C@@]1([C@@H]2O[C@@H]([C@H]3O[C@@](O)(CO)[C@H](C)C[C@@H]3C)C[C@@H]2C)CC[C@H]([C@]2(C)CC[C@]3(C[C@H](O)[C@@H](C)[C@@H]([C@@H](C)[C@@H](OC)[C@H](C)C(=O)O)O3)O2)O1"
cat = "True"

[[record]]
molecule = "C=CCNC1=C2C[C@@H](C)C[C@H](OC)[C@H](O)[C@@H](C)/C=C(\\C)[C@H](OC(N)=O)[C@@H](OC)/C=C\\C=C(/C)C(=O)NC(=CC1=O)C2=O [17-AAG, 17-allylamino-geldanamycin, reference compound]"
cat = "False"

[[record]]
molecule = "Cc1nc2c(O)cccc2c(=O)[nH]1"
cat = "True"


**Q:** Strictly below 0.5: is that where celastrol score (connectivity score) of `C[C@]12CC[C@@H]3c4ccc(O)cc4CC[C@H]3[C@@H]1CC[C@@H]2O` sits?
**A:** True

**Q:** Another molecule to check: `NC(=O)C(=O)O`
**A:** True
